Test system: Aspartate Aminotransferase (AST)
Assay: Liver enzyme elevation in serum, AST
Type: in vivo
Conditions: cirRNA (SEQ ID NO: 1) LNPs; BALB/C mice; intravenous 0.5 MPK; 2 hours
observable: AST in Sera (IU/L) 2 hours After 0.5 MPK Injection

Answered examples (8):
molecule | val
CCCCC/C=C\C/C=C\CCCCCCCCN(CCCCCCCC/C=C\CCCCCCCC)CCOC(=O)NCc1ncc[nH]1 [Lipid 68] | 81.27 IU/L
CCCCCCCCC(CCCCCC)C(=O)OCCCCCCCCN(CCCCCCCCCCC(=O)OCCCCCC)CCOC(=O)NCCN(C)C (stereo not drawn) [Lipid 43] | 135.60 IU/L
CCCCCCCCC(CCCCCCCC)OC(=O)CCCCCCCN(CCCCCCCCOC(=O)C(CCCCCC)CCCCCCCC)CCCOC(=O)NCCN1CCCC1 (stereo not drawn) [Lipid 350] | 368.00 IU/L
CCCCCCCCCCC(CCCCCCCC)COC(=O)CCCCCN(CCCCCC(=O)OCC(CCCCCCCC)CCCCCCCCCC)CCOC(=O)NCCN1CCCCC1 (stereo not drawn) [Lipid 169] | 129.50 IU/L
CCCCC/C=C\CCOC(=O)CCCCCN(CCCCCC(=O)OCC(CCCCCCCC)CCCCCCCCCC)CCOC(=O)NCCN1CCCCC1 (stereo not drawn) [Lipid 245] | 387.00 IU/L
CCCCCCCCC(CCCCCCCC)OC(=O)CCCCCCCN(CCCCCCCCOC(=O)C(CCCCCC)CCCCCCCC)CCOC(=O)NCCN1CCCC1 (stereo not drawn) [Lipid 148] | 136.17 IU/L
CCCCCCCCC(CCCCCC)C(=O)OCCCCCCCCN(CCCCCCCCOC(=O)C(CCCCCC)CCCCCCCC)CCCOC(=O)NCCN1CCCCC1 (stereo not drawn) [Lipid 380] | 196.33 IU/L
CCCCCCCCCC(=O)OCCCCCCCN(CCCCCCCCOC(=O)C(CCCCCC)CCCCCCCC)CCOC(=O)NCCN1CCCCC1 (stereo not drawn) [Lipid 196] | 202.33 IU/L

Hi, could you look up AST in Sera (IU/L) 2 hours After 0.5 MPK Injection for each item in my list?
1. CCCCC/C=C\C/C=C\CCCCCCCCN(CCCCCCCC(=O)OC(CCCCCCCC)CCCCCCCC)CCOC(=O)NCCN1CCCC1 [Lipid 128]
2. CCCCCCCCCCC(CCCCCCCC)COC(=O)CCCCCN(CCCCCC(=O)OCC(CCCCCCCC)CCCCCCCCCC)CCOC(=O)NCCN(C)C (stereo not drawn) [Lipid 170]
3. CCCCCCCCC(CCCCCC)C(=O)OCCCCCCCCN(CCCCCCCCOC(=O)C(CCCCCC)CCCCCCCC)CCCOC(=O)NCCN1CCCCCC1 (stereo not drawn) [Lipid 383]
4. CCCCCCCCCCC(CCCCCCCC)COC(=O)CCCCCN(CCCCCC(=O)OCC(CCCCCCCC)CCCCCCCCCC)CCCOC(=O)NCCN1CCCCC1 (stereo not drawn) [Lipid 370]

1: 195.53 IU/L; 2: 175.67 IU/L; 3: 245.00 IU/L; 4: 276.33 IU/L

----------
Tested on: RAW 264.7 cells
Assay: In vitro toxicity (CellTiter-Glo cell viability), RAW 264.7;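 note: percent of untreated cells luminescence signal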
Format: cell-based
Conditions: mRNA (SEQ ID NO: 2) LNP, 1 μg/mL, 72 hours post transfection
# if value of In vitro Viability RAW reaches 90%, tag Yes; if it stays below, tag No

molecule | group
CCCCC/C=C\C/C=C\CCCCCCCCN(CCCCCCCC(=O)OC(CCCCCCCC)CCCCCCCC)CCOC(=O)NCc1ncc[nH]1 | Yes
CCCCCCCCCCC(CCCCCCCC)COC(=O)CCCCCN(CCCCCC(=O)OCC(CCCCCCCC)CCCCCCCCCC)CCOC(=O)NCCN(C)C (stereo not drawn) | No
CCCCCCCCC(CCCCCC)C(=O)OCCCCCCCCN(CCCCCCCCOC(=O)C(CCCCCC)CCCCCCCC)CCCOC(=O)NCCN1CCCCCC1 (stereo not drawn) | Yes

Decide: In vitro Viability RAW of CCCCC/C=C\C/C=C\CCCCCCCCN(CCCCCCCC(=O)OC(CCCCCCCC)CCCCCCCC)CCCOC(=O)NCc1ncc[nH]1 >= 90%?
No

Decide: In vitro Viability RAW of CCCCCCCCCC(=O)OCCCCCCCN(CCCCCCCCOC(=O)C(CCCCCC)CCCCCCCC)CCOC(=O)NCCN1CCCCC1 (stereo not drawn) >= 90%?
Yes

----------
Experiment: LNP zeta potential (Zetasizer)
Assay type: physicochemical
Conditions: LNP with cirRNA (SEQ ID NO: 1)
observable: Zeta (mV)
Numbers only, in mV.

compound | observable | val
CCCCCCCCCC(=O)OCCCCCCCN(CCCCCCCCOC(=O)C(CCCCCC)CCCCCCCC)CCCOC(=O)NCCCn1ccnc1 (stereo not shown) | Zeta (mV) | −0.5834
CCCCCCCCCC(=O)OCCCCCCCN(CCCCCCCOC(=O)CCCCCCCCC)CCOC(=O)NCCN1CCN(C)CC1 | Zeta (mV) | 16.19
CCCCCCCCCC(=O)OCCCCCCCN(CCCCCCCCOC(=O)C(CCCCCC)CCCCCCCC)CCCOC(=O)NCCN1CCN(C)CC1 (stereo not shown) | Zeta (mV) | 11.87

Now for another entry.
The measured Zeta (mV) associated with CCCCCCCCCC(=O)OCCCCCCCCN(CCCCCCCCOC(=O)CCCCCCCCC)CCOC(=O)NCCN(C)C reads 16.36

----------
Please provide measured Size for the entries that follow.
Assay: LNP size and polydispersity index (PDI) by dynamic light scattering
Type: physicochemical
Details: LNP with cirRNA (SEQ ID NO: 1); in nm (unit assumed)
Give bare numbers.

compound | Size
CCCCCCCCC(CCCCCCCC)OC(=O)CCCCCCCN(CCCCCCCCOC(=O)C(CCCCCC)CCCCCCCC)CCOC(=O)NCCCN(C)C (centres unmarked) [Lipid 146] | 59.34

Hi, could you look up Size for each item in my list?
1. CCCCCCCCCCC(CCCCCCCC)COC(=O)CCCCCN(CCCCCC(=O)OCC(CCCCCCCC)CCCCCCCCCC)CCOC(=O)NCCCn1ccnc1 (centres unmarked) [Lipid 167]
2. CCCCCCOC(=O)CCCCCCCCCCN(CCCCCCCCCCC(=O)OCCCCCC)CCOC(=O)NCCN(C)C [Lipid 136]
3. CCCCCCCCC(CCCCCC)C(=O)OCCCCCCCCN(CCCCCCCCOC(=O)C(CCCCCC)CCCCCCCC)CCCOC(=O)NCc1ncc[nH]1 (centres unmarked) [Lipid 375]

61.26
143.7
92.54

Hi, could you look up Size for each item in my list?
1. CCCCCCCCCCC(CCCCCCCC)COC(=O)CCCCCN(CCCCCC(=O)OCC(CCCCCCCC)CCCCCCCCCC)CCOC(=O)NCc1ncc[nH]1 (centres unmarked) [Lipid 171]
2. CCCCCCCCC(CCCCCC)C(=O)OCCCCCCCCN(CCCCCCCCOC(=O)C(CCCCCC)CCCCCCCC)CCCOC(=O)NCCCN(C)C (centres unmarked) [Lipid 378]
3. CCCCCCCCC(CCCCCC)C(=O)OCCCCCCCCN(CCCCCCCCOC(=O)C(CCCCCC)CCCCCCCC)CCCOC(=O)NCCN1CCN(C)CC1 (centres unmarked) [Lipid 377]
4. CCCCC/C=C\C/C=C\CCCCCCCCN(CCCCCCCC/C=C\C/C=C\CCCCC)CCOC(=O)NCc1ncc[nH]1 [Lipid 39]
5. CCCCCCCCCCC(CCCCCCCC)COC(=O)CCCCCN(CCCCCC(=O)OCC(CCCCCCCC)CCCCCCCCCC)CCOC(=O)NCCN1CCCC1 (centres unmarked) [Lipid 168]
6. CCCCC/C=C\C/C=C\CCCCCCCCN(CCCCCCCC(=O)OC(CCCCCCCC)CCCCCCCC)CCOC(=O)NCCCn1ccnc1 [Lipid 133]
7. CCCCCCCCC(CCCCCC)C(=O)OCCCCCCCCN(CCCCCCCCOC(=O)C(CCCCCC)CCCCCCCC)CCCNCCN(C)C (centres unmarked) [Lipid 384]
8. CCCCCCCCCCCOC(=O)CCCCCN(CCCCCCCC(=O)OC(CCCCCCCC)CCCCCCCC)CCOC(=O)NCCCN(C)C [Lipid 162]

1. 55.9
2. 130.6
3. 112.8
4. 169.5
5. 93.98
6. 92.91
7. 135.9
8. 86.23

----------
Assay: LNP zeta potential (Zetasizer)
Assay type: physicochemical
Conditions: LNP with mRNA (SEQ ID NO: 2)
observable: Zeta (mV)
Answers are plain numbers, in mV.

Answered examples (4):
molecule | Zeta (mV)
CCCCC/C=C\C/C=C\CCCCCCCCN(CCCCCCCC/C=C\C/C=C\CCCCC)CCOC(=O)CCCN(C)C [Lipid A, reference compound] | 10.76
CCCCC/C=C\C/C=C\CCCCCCCCN(CCCCCCCC/C=C\C/C=C\CCCCC)CCOC(=O)[C@@H](N)Cc1c[nH]cn1 [Lipid B, reference compound] | 0.02157
CCCCCCCCCC(=O)OCCCCCCCN(CCCCCCCCOC(=O)C(CCCCCC)CCCCCCCC)CCOC(=O)NCCN1CCCC1 (centres unmarked) [Lipid 195] | 16.37
CCCCC/C=C\C/C=C\CCCCCCCCN(CCCCCCCC(=O)OC(CCCCCCCC)CCCCCCCC)CCOC(=O)NCCN(C)C [Lipid 129] | 0.5475

Now for another entry.
The measured Zeta (mV) associated with CCCCC/C=C\C/C=C\CCCCCCCCN(CCCCCCCC(=O)OC(CCCCCCCC)CCCCCCCC)CCOC(=O)NCCN1CCCC1 [Lipid 128] reads 6.141
